# protocol-details: chemical genetic growth profiling, strain panel (AID 1159580);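 note: tested at 20 µM; growth read once vehicle control cultures reached saturation at 30 °C; 1 = growth at the plate median or of vehicle wells; lower values mean less growth of the strain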
# condition-info: S. cerevisiae deletion strains, growth OD, locus YDR101C, strain arx1, hits give low values
Among all 5,500 compounds or so, about 2,000 (36%) were called active. Another 18% or so got no clear call; they are omitted. Some of the results follow.
reported-endpoint: normalized growth
Reply with just the number.

Record C=C1CCC2[C@](C)(CO)[C@H](O)CC[C@@]2(C)[C@@H]1C/C=C1/C(=O)OC[C@H]1O (some centres undefined) . Reported normalized growth: 1.01

Record CC[C@@]1(O)C[C@H](O[C@H]2C[C@H](N(C)C)[C@H](O)[C@H](C)O2)c2c(cc3c(c2O)C(=O)c2c(O)cccc2C3=O)[C@H]1C(=O)OC . Reported normalized growth: 0.8

Record COc1c(N2CCNC(C)C2)c(F)cc2c(=O)c(C(=O)O)cn(C3CC3)c12 (centres undefined) . Reported normalized growth: 0.993

Record C=C[C@@](C)(O)CCC1C(=C)CCC2[C@@](C)(CO)CCC[C@]12C (some centres undefined) . Reported normalized growth: 0.915

Record C=C[C@@](C)(O)CCC1C(=C)C[C@H](OC(C)=O)C2C(C)(C)CCCC12C (some centres undefined) . Reported normalized growth: 0.977

Record Clc1ccc(C(c2ccc(Cl)cc2)C(Cl)(Cl)Cl)cc1 . Reported normalized growth: 0.993

Record C=C[C@@](C)(O)CCC1C(=C)C[C@H](O)C2C(C)(C)CCCC12C (some centres undefined) . Reported normalized growth: 1

Record CC1(C)S[C@@H]2[C@H](NC(=O)[C@H](N)c3ccccc3)C(=O)N2[C@H]1C(=O)O . Reported normalized growth: 1.01

Record CC1CCc2cc(F)cc3c(=O)c(C(=O)O)cn1c23 (centres undefined) . Reported normalized growth: 0.962

###

# protocol-details: chemical genetic growth profiling, strain panel (AID 1159580);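 note: tested at 20 µM; growth read once vehicle control cultures reached saturation at 30 °C; 1 = growth at the plate median or of vehicle wells; lower values mean less growth of the strain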
# condition-info: S. cerevisiae deletion strains, growth OD, locus YPR163C, strain tif3, hits give low values
In all, about 5,500 compounds went through this assay and about 2,000 (36%) were called active. Not shown: some 18% with an inconclusive outcome. The list shows a part of the results.
Assign normalized growth to each entry below.
Reply with just the number.

Record CC(C)NCC(O)COc1cccc2[nH]ccc12 (stereo not given) . Reported normalized growth: 0.984

Record O=C(O)CCCc1ccccc1 . Reported normalized growth: 0.983

Record O=C1C(Cl)=C(Cl)C(=O)C(Cl)=C1Cl . Reported normalized growth: 0.321

Record NS(=O)(=O)c1cc2c(cc1Cl)NC=NS2(=O)=O . Reported normalized growth: 0.998

Record O=c1c(-c2ccc(O)cc2)coc2cc(O)ccc12 . Reported normalized growth: 0.982

Record CCn1cc(C(=O)O)c(=O)c2cc(F)c(N3CCNCC3)nc21 . Reported normalized growth: 1.03

Record CCN(CC)Cc1ccc(Nc2ccnc3cc(Cl)ccc23)cc1O . Reported normalized growth: 1.01

Record COc1ccc(-c2coc3cc(O)ccc3c2=O)c(OC)c1O . Reported normalized growth: 0.997

Record COc1c(N2CCNC(C)C2)c(F)cc2c(=O)c(C(=O)O)cn(C3CC3)c12 (stereo not given) . Reported normalized growth: 1

Record O=C(O)/C=C/c1ccc(O)c(O)c1 . Reported normalized growth: 1

Record CC1CCc2cc(F)cc3c(=O)c(C(=O)O)cn1c23 (stereo not given) . Reported normalized growth: 0.974

Record COc1ccc(OC)c(C(O)CNC(=O)CN)c1 (stereo not given) . Reported normalized growth: 0.983

Record COc1ccc(-c2coc3cc(O)ccc3c2=O)c(OC)c1 . Reported normalized growth: 0.999

Record COc1ccccc1-c1coc2cc(O)ccc2c1=O . Reported normalized growth: 1.02

Record COc1ccc(-c2coc3cc(O)ccc3c2=O)cc1 . Reported normalized growth: 0.794
